// data source = ChEMBL document CHEMBL3272205

Species on record: Rattus norvegicus
Assay Summary: Anticonvulsant activity in rat assessed as protection against pentylenetetrazole-induced clonic seizures
Type: functional
Reported Conditions: read-out: MED
Parameter threshold = 8 mg/kg. Response is Yes when minimal effective dose meets or exceeds it, else No.

// below: answered compounds
CCc1nn(C)c2c1C(c1ccccc1F)=NCC(=O)N2.Cl = No
C=CCN1C(=O)CN=C(c2ccccc2Cl)c2c(C)nn(CC)c21 = Yes
CC(C)c1nn(C)c2c1C(c1ccccc1Cl)=NCC(=O)N2C = Yes

Moving on to the next compound.
Ask | Decide: is the reported value of minimal effective dose for `CCCCn1nc(C)c2c1N(C)C(=O)CN=C2c1ccccc1Cl` equal to or greater than 8 mg/kg?
Reply | Yes

* * *

Collected minimal effective dose values appear next to each entry.
Species: Rattus norvegicus
Assay Summary: Anticonvulsant activity in rat assessed as protection against pentylenetetrazole-induced clonic seizures
Format: functional
Reported Conditions: read-out: MED

Consider the following illustrative entries.
CCc1nn(C)c2c1C(c1ccc(F)cc1)=NCC(=O)N2C = > 500 mg/kg
Cc1nn(C)c2c1C(c1ccccc1)=NCC(=O)N2C = 4 mg/kg
CCc1nn(C)c2c1C(c1ccccc1)=NCC(=O)N2 = 8 mg/kg
Cc1nn(C)c2c1C(c1ccccc1F)=NCC(=O)N2C.Cl [ZOLAZEPAM HYDROCHLORIDE] = 2 mg/kg
Cc1nn(C)c2c1C(c1ccccc1)=NCC(=O)N2C.Cl = 4 mg/kg

Next item in the queue.
Input `Cc1nn(C)c2c1C(c1c(F)cccc1F)=NCC(=O)N2C` . Output minimal effective dose: 2 mg/kg

* * *

Species on record: Rattus norvegicus
Assay Summary: Anticonvulsant activity in rat assessed as protection against pentylenetetrazole-induced clonic seizures
Assay type: functional
Reported Conditions: read-out: MED
Parameter threshold = 60 mg/kg. Response is 1.0 when minimal effective dose meets or exceeds it, else 0.0.

Cc1nn(C)c2c1C(c1ccccc1F)NCC(=O)N2C.Cl (stereo not given) = 0.0

Ask | Decide: is the reported value of minimal effective dose for `CCCn1nc(C)c2c1NC(=O)CN=C2c1ccccc1Cl` equal to or greater than 60 mg/kg?
Reply | 1.0

Ask | Decide: is the reported value of minimal effective dose for `Cc1nn(C)c2c1C(c1ccccc1Cl)=NCC(=O)N2C.Cl` equal to or greater than 60 mg/kg?
Reply | 0.0

Ask | Decide: is the reported value of minimal effective dose for `CC(C)c1nn(C)c2c1C(c1ccccc1Cl)=NCC(=O)N2` equal to or greater than 60 mg/kg?
Reply | 1.0

Ask | Decide: is the reported value of minimal effective dose for `Cl.Cn1ncc2c1NC(=O)CN=C2c1ccccc1` equal to or greater than 60 mg/kg?
Reply | 1.0

Ask | Decide: is the reported value of minimal effective dose for `Cn1nc(Cl)c2c1NC(=O)CN=C2c1ccccc1` equal to or greater than 60 mg/kg?
Reply | 1.0

Ask | Decide: is the reported value of minimal effective dose for `CCn1nc(C)c2c1N(C)C(=O)CN=C2c1ccccc1Cl` equal to or greater than 60 mg/kg?
Reply | 0.0

Ask | Decide: is the reported value of minimal effective dose for `CCCc1nn(C)c2c1C(c1ccccc1Cl)=NCC(=O)N2` equal to or greater than 60 mg/kg?
Reply | 1.0

Ask | Decide: is the reported value of minimal effective dose for `CCn1nc(C)c2c1NC(=O)CN=C2c1ccccc1Cl` equal to or greater than 60 mg/kg?
Reply | 0.0

Ask | Decide: is the reported value of minimal effective dose for `CCCn1nc(C)c2c1N(C)C(=O)CN=C2c1ccccc1Cl` equal to or greater than 60 mg/kg?
Reply | 0.0

* * *

Collected log10(minimal effective dose) values appear next to each entry.
Species: Rattus norvegicus
Assay Summary: Anticonvulsant activity in rat assessed as protection against pentylenetetrazole-induced clonic seizures
Format: functional
Reported Conditions: read-out: MED
All values: base-10 log of minimal effective dose in mg/kg.

Consider the following illustrative entries.
CCc1nn(C)c2c1C(c1cccc(F)c1)=NCC(=O)N2 = 1.51
Cc1nn(C(C)C)c2c1C(c1ccccc1Cl)=NCC(=O)N2 = 1.20
Cc1nn(C)c2c1C(c1ccccc1)=NCC(=O)N2 = 1.20
Cc1nn(C)c2c1C(c1ccccc1F)=NCC(=O)N2C = 0.30
CCc1nn(C)c2c1C(c1ccccc1)NCC(=O)N2C.Cl (centres undefined) = 1.80
CCn1nc(C)c2c1N(C)C(=O)CN=C2c1ccccc1F = 0.60

Input `Cc1nn(C)c2c1C(c1ccccc1)=[N+]([O-])CC(=O)N2C` . Output log10(minimal effective dose): 1.80

Input `Cc1nn(C)c2c1C(c1ccccc1F)=NCC(=O)N2` . Output log10(minimal effective dose): 0.90

Input `Cc1nn(C)c2c1C(c1ccccc1Cl)=NCC(=O)N2` . Output log10(minimal effective dose): 1.20

Input `CCn1nc(C)c2c1NC(=O)CN=C2c1ccccc1F` . Output log10(minimal effective dose): 0.90

Input `Cc1nn(C)c2c1C(c1ccccc1Br)=NCC(=O)N2C` . Output log10(minimal effective dose): 0.60

Input Cc1nn(C)c2c1C(c1ccccc1F)=NC(O)C(=O)N2C (centres undefined) . Output log10(minimal effective dose): 0.60

Input `Cc1nn(C2CCCCC2)c2c1C(c1ccccc1Cl)=NCC(=O)N2C` . Output log10(minimal effective dose): 1.80

Input `CCCCn1nc(C)c2c1NC(=O)CN=C2c1ccccc1Cl` . Output log10(minimal effective dose): 1.51

* * *

Species: Rattus norvegicus
Assay Summary: Anticonvulsant activity in rat assessed as protection against pentylenetetrazole-induced clonic seizures
Assay type: functional
Reported Conditions: read-out: MED
Property Label: minimal effective dose (mg/kg)
The reply should be a number in mg/kg, with the unit left off.

Consider the following illustrative entries.
Cc1nn(C)c2c1C(c1ccccc1[N+](=O)[O-])=NCC(=O)N2C = 8
CCc1nn(C)c2c1C(c1ccccc1F)=NCC(=O)N2 = 2
COc1nn(C)c2c1C(c1ccccc1F)=NCC(=O)N2C = 8

Next item in the queue.
Input Cc1nn(C)c2c1C(c1ccccc1)=NC(O)C(=O)N2C (stereo unspecified) . Output minimal effective dose: 16

* * *

Collected minimal effective dose values appear next to each entry.
Organism: Rattus norvegicus
Assay Summary: Anticonvulsant activity in rat assessed as protection against pentylenetetrazole-induced clonic seizures
Assay type: functional
Reported Conditions: read-out: MED
The reply should be a number in mg/kg, with the unit left off.

Consider the following illustrative entries.
CC(=O)OC1N=C(c2ccccc2F)c2c(C)nn(C)c2N(C)C1=O (configuration not stated) = 8
Cc1nn(C)c2c1C(c1ccccc1F)=[N+]([O-])CC(=O)N2C = 8
CCc1nn(C)c2c1C(c1ccccc1Cl)=NCC(=O)N2C = 16

Next item in the queue.
Input `CCc1nn(C)c2c1C(c1ccccc1F)=NCC(=O)N2C` . Output minimal effective dose: 4

* * *

Organism: Rattus norvegicus
Assay Summary: Anticonvulsant activity in rat assessed as protection against pentylenetetrazole-induced clonic seizures
Assay type: functional
Reported Conditions: read-out: MED
Property Label: log10 of minimal effective dose (log10 of the value in mg/kg)
All values: base-10 log of minimal effective dose in mg/kg.

Consider the following illustrative entries.
CCN1C(=O)CN=C(c2ccccc2F)c2c(C)nn(C)c21 = 1.51
CCc1nn(C)c2c1C(c1ccccc1)=NCC(=O)N2C = 0.60
CCc1nn(C)c2c1C(c1ccccc1Cl)=NCC(=O)N2 = 1.51
CCCc1nn(C)c2c1C(c1ccccc1Cl)=NCC(=O)N2C = 1.80
Cc1nn(-c2ccccc2)c2c1C(c1ccccc1Cl)=NCC(=O)N2 = 2.70

Next item in the queue.
Input `CCCCc1nn(C)c2c1C(c1ccccc1Cl)=NCC(=O)N2C` . Output log10 of minimal effective dose: 2.10

* * *

Species: Rattus norvegicus
Assay Summary: Anticonvulsant activity in rat assessed as protection against pentylenetetrazole-induced clonic seizures
Assay type: functional
Reported Conditions: read-out: MED
Collected minimal effective dose values appear next to each entry.
The reply should be a number in mg/kg, with the unit left off.

Consider the following illustrative entries.
CN1C(=O)CN=C(c2ccccc2)c2cc(Cl)ccc21 [DIAZEPAM] = 4
CCc1nn(C)c2c1C(c1cccc(F)c1)=NCC(=O)N2C = 32

Input `Cc1nn(C)c2c1C(c1ccccc1N=[N+]=[N-])=NCC(=O)N2C` . Output minimal effective dose: 63
